Reported values of 1 nM Num. of reads for individual entries
Test system: FGFR3
experiment notes: Phage display selection against FGFR3 with Miseq analysis of the bound phages
Type: binding
recorded conditions: phage library after panning Round 4, bound to 1 nM FGFR3

sequence string: CAAELAALEAELAALEGEGMSTLNRQGKLSVLKSKLLWLKHAC [F3-100n228]
tgt: FGFR3
1 nM Num. of reads: 2006
--
sequence string: CAAELAALEAELAALEVGRVKTLGRYGKLMVLKHQLRNLKCAC [F3-100n161]
tgt: FGFR3
1 nM Num. of reads: 1045
--
sequence string: CAAELAALEAELAALEGKEHPTLRTSGKLLHLKLKLHELKRAC [F3-100n131]
tgt: FGFR3
1 nM Num. of reads: 2801
--
sequence string: CAAELAALEAELAALEGEVNMTRARAGKLLVLKVKLHGLKQAC [F3-100n504]
tgt: FGFR3
1 nM Num. of reads: 1062
--
sequence string: CAAELAALEAELAALEGASTPTLESRGKLGSLIFKLRQLKVAC [F3-100n50]
tgt: FGFR3
1 nM Num. of reads: 1149
--
sequence string: CAAELAALEAELAALEGRTFTIGEVKGKLQGLIMKLHHLKDAC [F3-100n116]
tgt: FGFR3
1 nM Num. of reads: 1895
--
sequence string: CAAELAALEAELAALEGENVYTLGGLGKLMLLKYKLRELKGAC [F3-100n458]
tgt: FGFR3
1 nM Num. of reads: 1304
--
sequence string: CAAELAALEAELAALEGRPVRTVLTNGKLMVLKSKLQELKHAC [F3-100n182]
tgt: FGFR3
1 nM Num. of reads: 1723
--
sequence string: CAAELAALEAELAALEGGAFLTVGRAGKLMMLKQKLVRLKCAC [F3-100n117]
tgt: FGFR3
1 nM Num. of reads: 1355

---

Tested on: FGFR3
experiment notes: Phage display selection against FGFR3 with Miseq analysis of the bound phages
Assay type: binding
recorded conditions: rank by number of reads, 1 nM FGFR3
Reported values of 1 nM Ranking for individual entries
experimental readout: 1 nM Ranking

sequence string: CAAELAALEAELAALEGGAPVTIMGVGKLMVLKEKLRNLKDAC [F3-100n16]
tgt: FGFR3
experimental readout: 1 nM Ranking
measured number: 16
//
sequence string: CAAELAALEAELAALEVGRVKTLGRYGKLMVLKHQLRNLKCAC [F3-100n161]
tgt: FGFR3
experimental readout: 1 nM Ranking
measured number: 19
//
sequence string: CAAELAALEAELAALEGVKELTLGTVGKLMSLKYKLWSLKQAC [F3-100n410]
tgt: FGFR3
experimental readout: 1 nM Ranking
measured number: 4
//
sequence string: CAAELAALEAELAALEGASTPTLESRGKLGSLIFKLRQLKVAC [F3-100n50]
tgt: FGFR3
experimental readout: 1 nM Ranking
measured number: 14
//
sequence string: CAAELAALEAELAALEGQKHFTLGGLGKLIVLKKQLRILKCAC [F3-100n174]
tgt: FGFR3
experimental readout: 1 nM Ranking
measured number: 8
//
sequence string: CAAELAALEAELAALEGGRTPVVTTMGKLMGLKLKLQQLKRAC [F3-100n322]
tgt: FGFR3
experimental readout: 1 nM Ranking
measured number: 12
//
sequence string: CAAELAALEAELAALEGVRPETMSQVGKLLVLKHRLGQLKRAC [F3-100n9]
tgt: FGFR3
experimental readout: 1 nM Ranking
measured number: 1
//
sequence string: CAAELAALEAELAALEGGRDRTLELSGKLLVLKSKLHWLKHAC [F3-100n251]
tgt: FGFR3
experimental readout: 1 nM Ranking
measured number: 2
//
sequence string: CAAELAALEAELAALEGLHTLTLMQTGKLLVLKMKLRELKWAC [F3-100n192]
tgt: FGFR3
experimental readout: 1 nM Ranking
measured number: 15
//
sequence string: CAAELAALEAELAALEGKEHPTLRTSGKLLHLKLKLHELKRAC [F3-100n131]
tgt: FGFR3
experimental readout: 1 nM Ranking
measured number: 3
//
sequence string: CAAELAALEAELAALEGSTARTLMQVGKLEMLKYKLLELKCAC [F3-100n3]
tgt: FGFR3
experimental readout: 1 nM Ranking
measured number: 17
//
sequence string: CAAELAALEAELAALEGKDFRTIELVGKLVLLKYKLNNLKEAC [F3-100n548]
tgt: FGFR3
experimental readout: 1 nM Ranking
measured number: 11
//
sequence string: CAAELAALEAELAALEGEVNMTRARAGKLLVLKVKLHGLKQAC [F3-100n504]
tgt: FGFR3
experimental readout: 1 nM Ranking
measured number: 18
//
sequence string: CAAELAALEAELAALEGRTFTIGEVKGKLQGLIMKLHHLKDAC [F3-100n116]
tgt: FGFR3
experimental readout: 1 nM Ranking
measured number: 6
//
sequence string: CAAELAALEAELAALEGRPVRTVLTNGKLMVLKSKLQELKHAC [F3-100n182]
tgt: FGFR3
experimental readout: 1 nM Ranking
measured number: 7
//
sequence string: CAAELAALEAELAALEGEGMSTLNRQGKLSVLKSKLLWLKHAC [F3-100n228]
tgt: FGFR3
experimental readout: 1 nM Ranking
measured number: 5
//
sequence string: CAAELAALEAELAALEGETNMTVLMTGKLLVLKHKLEHLKWAC [F3-100n386]
tgt: FGFR3
experimental readout: 1 nM Ranking
measured number: 13
//
sequence string: CAAELAALEAELAALEGENVYTLGGLGKLMLLKYKLRELKGAC [F3-100n458]
tgt: FGFR3
experimental readout: 1 nM Ranking
measured number: 10
//
sequence string: CAAELAALEAELAALEGLDYHTVLSTGKLMVLKRKLNILKLAC [F3-100n250]
tgt: FGFR3
experimental readout: 1 nM Ranking
measured number: 20
//
sequence string: CAAELAALEAELAALEGGAFLTVGRAGKLMMLKQKLVRLKCAC [F3-100n117]
tgt: FGFR3
experimental readout: 1 nM Ranking
measured number: 9

---

Tested on: FGFR1
experiment notes: Phage display selection against FGFR1 with Miseq analysis of the bound phages
Type: binding
recorded conditions: phage library after panning Round 5, bound to 10 nM FGFR1
Reported values of 10 nM Num. of reads for individual entries

sequence string: CAAELAALEAELAALEGINAVPMSGRGKLYSLKNKLHYLKNAC [100n12]
tgt: FGFR1
10 nM Num. of reads: 267

sequence string: CAAELAALEAELAALEGQTFMNPHRLGKLDKLKLKLVHLKRAC [100n8]
tgt: FGFR1
10 nM Num. of reads: 3717

sequence string: CAAELAALEAELAALEGFGGVVYSCEWQAVYLKYKLMRLKQAC [100n17]
tgt: FGFR1
10 nM Num. of reads: 10095

sequence string: CAAELAALEAELAALEGGDEVPHVGGGKLKMLKYQLNNLKHAC [100n417]
tgt: FGFR1
10 nM Num. of reads: 1010

The reported measurements were obtained from patent US20230139883A1.
